Numbers sourced from patent US20260028403A1.

molecular target: huCD28 (human, UniProt P10747 19-152, limits assumed); test: SPR, OAA format
measurement_name: koff (s⁻¹)
Give bare numbers, in s⁻¹.

Completed entries (count: 5):
>  <binder>
v37844 (antibody, V domains shown, OAA format as v34891; also called huTN228 S1036A (VH) OAA) VH: QVQLQESGPGLVKPSETLSLTCAVSGFSLTAYGVHWIRQPPGKGLEWLGVIWPGGGTNFNSALMSRLTISEDTSKNQVSLKLSSVTAADTAVYYCARDRAYGNYLYAMDYWGQGTLVTVSS VL: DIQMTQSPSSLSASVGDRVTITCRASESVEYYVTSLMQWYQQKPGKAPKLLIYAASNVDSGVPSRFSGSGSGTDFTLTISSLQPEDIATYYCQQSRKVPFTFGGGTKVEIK

>  <koff / s⁻¹>
0.00313

$$$$
>  <binder>
v37884 (antibody, V domains shown, OAA format as v34891; also called huTN228 L1112AI (VH) OAA) VH: QVQLQESGPGLVKPSETLSLTCAVSGFSLTSYGVHWIRQPPGKGLEWLGVIWPGGGTNFNSALMSRLTISEDTSKNQVSLKLSSVTAADTAVYYCARDRAYGNYIYAMDYWGQGTLVTVSS VL: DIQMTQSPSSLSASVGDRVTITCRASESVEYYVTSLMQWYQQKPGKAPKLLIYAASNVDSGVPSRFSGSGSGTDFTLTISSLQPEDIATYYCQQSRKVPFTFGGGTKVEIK

>  <koff / s⁻¹>
0.00993

$$$$
>  <binder>
v37890 (antibody, V domains shown, OAA format as v34891; also called huTN228 A1024T (VH) OAA) VH: QVQLQESGPGLVKPSETLSLTCTVSGFSLTSYGVHWIRQPPGKGLEWLGVIWPGGGTNFNSALMSRLTISEDTSKNQVSLKLSSVTAADTAVYYCARDRAYGNYLYAMDYWGQGTLVTVSS VL: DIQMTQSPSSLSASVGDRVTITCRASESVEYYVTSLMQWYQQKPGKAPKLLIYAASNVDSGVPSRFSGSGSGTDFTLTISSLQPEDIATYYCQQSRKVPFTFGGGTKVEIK

>  <koff / s⁻¹>
0.00349

$$$$
>  <binder>
v34891 (parental huTN228 OAA) (antibody, V domains shown, one-arm Fab antibody (OAA) format; also called huTN228 parental one-arm Fab antibody) VH: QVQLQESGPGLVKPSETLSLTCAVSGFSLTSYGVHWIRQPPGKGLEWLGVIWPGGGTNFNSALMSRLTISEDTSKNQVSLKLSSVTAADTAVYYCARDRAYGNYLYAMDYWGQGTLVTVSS VL: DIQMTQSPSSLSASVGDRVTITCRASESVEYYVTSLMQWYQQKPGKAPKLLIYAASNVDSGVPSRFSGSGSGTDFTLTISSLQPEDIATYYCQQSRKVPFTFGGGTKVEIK

>  <koff / s⁻¹>
0.00319

$$$$
>  <binder>
v37876 (antibody, V domains shown, OAA format as v34891; also called huTN228 S1069A (VL) OAA) VH: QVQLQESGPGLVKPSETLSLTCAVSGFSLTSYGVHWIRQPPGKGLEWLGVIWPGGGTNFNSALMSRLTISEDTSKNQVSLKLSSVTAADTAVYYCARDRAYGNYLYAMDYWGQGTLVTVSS VL: DIQMTQSPSSLSASVGDRVTITCRASESVEYYVTSLMQWYQQKPGKAPKLLIYAASNVDAGVPSRFSGSGSGTDFTLTISSLQPEDIATYYCQQSRKVPFTFGGGTKVEIK

>  <koff / s⁻¹>
0.00326

$$$$

// each binder listed below needs its koff
1. v37856 (antibody, V domains shown, OAA format; also called huTN228 N1111AA (VH) OAA) VH: QVQLQESGPGLVKPSETLSLTCAVSGFSLTSYGVHWIRQPPGKGLEWLGVIWPGGGTNFNSALMSRLTISEDTSKNQVSLKLSSVTAADTAVYYCARDRAYGAYLYAMDYWGQGTLVTVSS VL: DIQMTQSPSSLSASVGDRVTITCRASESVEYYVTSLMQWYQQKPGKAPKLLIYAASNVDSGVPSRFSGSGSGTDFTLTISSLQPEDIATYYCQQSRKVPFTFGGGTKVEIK
2. v37869 (antibody, V domains shown, OAA format as v34891; also called huTN228 V1035A (VL) OAA) VH: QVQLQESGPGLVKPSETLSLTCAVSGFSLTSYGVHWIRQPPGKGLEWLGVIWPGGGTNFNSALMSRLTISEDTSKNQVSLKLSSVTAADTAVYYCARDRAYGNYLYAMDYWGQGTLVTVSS VL: DIQMTQSPSSLSASVGDRVTITCRASESVEYYATSLMQWYQQKPGKAPKLLIYAASNVDSGVPSRFSGSGSGTDFTLTISSLQPEDIATYYCQQSRKVPFTFGGGTKVEIK
3. v37875 (antibody, V domains shown, OAA format as v34891; also called huTN228 D1068A (VL) OAA) VH: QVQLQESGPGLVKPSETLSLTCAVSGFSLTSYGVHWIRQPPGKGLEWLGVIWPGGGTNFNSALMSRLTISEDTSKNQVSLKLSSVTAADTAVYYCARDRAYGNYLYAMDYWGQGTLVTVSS VL: DIQMTQSPSSLSASVGDRVTITCRASESVEYYVTSLMQWYQQKPGKAPKLLIYAASNVASGVPSRFSGSGSGTDFTLTISSLQPEDIATYYCQQSRKVPFTFGGGTKVEIK
4. v37897 (antibody, V domains shown, OAA format as v34891; also called huTN228 V1087F (VH) OAA) VH: QVQLQESGPGLVKPSETLSLTCAVSGFSLTSYGVHWIRQPPGKGLEWLGVIWPGGGTNFNSALMSRLTISEDTSKNQFSLKLSSVTAADTAVYYCARDRAYGNYLYAMDYWGQGTLVTVSS VL: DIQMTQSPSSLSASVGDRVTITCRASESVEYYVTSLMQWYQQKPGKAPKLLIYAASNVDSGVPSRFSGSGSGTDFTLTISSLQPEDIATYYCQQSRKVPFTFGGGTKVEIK
5. v37854 (antibody, V domains shown, OAA format as v34891; also called huTN228 Y1110A (VH) OAA) VH: QVQLQESGPGLVKPSETLSLTCAVSGFSLTSYGVHWIRQPPGKGLEWLGVIWPGGGTNFNSALMSRLTISEDTSKNQVSLKLSSVTAADTAVYYCARDRAAGNYLYAMDYWGQGTLVTVSS VL: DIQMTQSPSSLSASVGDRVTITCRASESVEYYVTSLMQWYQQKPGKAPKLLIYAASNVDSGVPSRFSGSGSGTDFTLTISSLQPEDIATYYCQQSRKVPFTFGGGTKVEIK

1: 0.0254; 2: 0.0277; 3: 0.00315; 4: 0.00487; 5: 0.0034
